Test system: MDA-MB-435
Assay: NCI tumour cell line growth inhibition, 48 h
Calls of active or inactive are those of the source. No stated cut-off is given here; in the data, active = GI50 up to about 1.1 µM and inactive = higher.
Can you answer with just one of these options? active, inactive

Completed entries (count: 3):
[[record]]
compound = "CCCC1CCC(=C2C(=O)CCC2=O)O1 (stereo unspecified)"
assigned_category = "inactive"

[[record]]
compound = "NCCC1CN(C(=O)OCc2ccccc2)c2ccccc21 (stereo unspecified)"
assigned_category = "inactive"

[[record]]
compound = "CN(CCCCCl)P(=O)(OCc1ccc([N+](=O)[O-])o1)OC[C@H]1O[C@@H](n2cc(F)c(=O)[nH]c2=O)C[C@@H]1O (stereo partly specified)"
assigned_category = "inactive"


Query string: Test call, this compound: CCCCCC(=O)N[C@@H](c1ccccc1)C(O)C(=O)OC1C[C@@]2(O)C(OC(=O)c3ccccc3)C3[C@](C)(C(=O)[C@H](O)C(=C1C)C2(C)C)C(OC1OCC(O)C(O)C1O)C[C@H]1OC[C@@]31OC(C)=O (stereo partly specified)
Result string: active

Query string: Test call, this compound: "CCOC(=O)C(=[N+]=[N-])C(=O)CSC#N"
Result string: inactive

Query string: Test call, this compound: "CC(=O)O[C@H]1CC[C@@]2(C)C(=CC[C@@H]3[C@@H]2CC[C@]2(C)c4c(C)n[nH]c4C[C@@H]32)C1"
Result string: inactive

Query string: Test call, this compound: "ClCC[N+]12CC[N+](CCCl)(CC1)C2"
Result string: inactive

Query string: Test call, this compound: COc1ccc2c(c1)C(=O)CC1c3cnccc3C(=O)N21 (stereo unspecified)
Result string: inactive

Query string: Test call, this compound: "c1csc(-c2ccsc2-c2ccsc2)c1"
Result string: inactive

Query string: Test call, this compound: Cn1/c(=N\N=C2\C=C3CCCCC3(C)CC2)sc2ccccc21 (stereo unspecified)
Result string: inactive

Query string: Test call, this compound: "OCCNCNc1nc(NCNCCO)nc(N(CNCCO)CNCCO)n1"
Result string: inactive

Query string: Test call, this compound: "CN(O)C(=O)c1ccc(OCc2cccc(Cl)c2)cc1"
Result string: inactive

Query string: Test call, this compound: O=C1N=C(c2ccccc2)OC1C(=O)c1ccccc1 (stereo unspecified)
Result string: inactive

Query string: Test call, this compound: CCC1CN(C(=O)c2ccccc2)C(Cc2c[nH]c3ccccc23)C(=O)C1CC(=O)OC (stereo unspecified)
Result string: inactive

Query string: Test call, this compound: O=C(OCc1ccccc1)C(Cc1ccc(OCc2ccccc2)cn1)NC(=O)C(F)(F)F (stereo unspecified)
Result string: inactive

Query string: Test call, this compound: "COc1ccc(-c2oc3cc(OC)ccc3c(=O)c2O)cc1"
Result string: inactive

Query string: Test call, this compound: CO[C@H]1C=CO[C@@]2(C)Oc3c(C)c(O)c4c(O)c(c(CN5CCN(C)CC5)c(O)c4c3C2=O)NC(=O)/C(C)=C\C=C[C@H](C)[C@H](O)C(C)[C@@H](O)C(C)[C@H](OC(C)=O)[C@@H]1C (stereo partly specified)
Result string: inactive

Query string: Test call, this compound: "Cc1c(C#N)c2nnn(-c3ccc(Cl)cc3)c(=O)n2c1-c1ccccc1"
Result string: active

Query string: Test call, this compound: "O=S1(=O)OCCCOS(=O)(=O)C1Br"
Result string: inactive

Query string: Test call, this compound: S=C1SSC2N=CC=CC12 (stereo unspecified)
Result string: inactive

Query string: Test call, this compound: CCCCCCCCCCCCCCCCCCOCC(COP(=O)([O-])OCC[N+](C)(C)C)OC (stereo unspecified)
Result string: inactive
